testSystem: T1, FLRT3 (antigen of the binning assay of Table 2) (Homo sapiens (Human), UniProt Q9NZU0 29-528, limits assumed)
T1 construct: the whole entry for FLRT3 is named
T1 sequence: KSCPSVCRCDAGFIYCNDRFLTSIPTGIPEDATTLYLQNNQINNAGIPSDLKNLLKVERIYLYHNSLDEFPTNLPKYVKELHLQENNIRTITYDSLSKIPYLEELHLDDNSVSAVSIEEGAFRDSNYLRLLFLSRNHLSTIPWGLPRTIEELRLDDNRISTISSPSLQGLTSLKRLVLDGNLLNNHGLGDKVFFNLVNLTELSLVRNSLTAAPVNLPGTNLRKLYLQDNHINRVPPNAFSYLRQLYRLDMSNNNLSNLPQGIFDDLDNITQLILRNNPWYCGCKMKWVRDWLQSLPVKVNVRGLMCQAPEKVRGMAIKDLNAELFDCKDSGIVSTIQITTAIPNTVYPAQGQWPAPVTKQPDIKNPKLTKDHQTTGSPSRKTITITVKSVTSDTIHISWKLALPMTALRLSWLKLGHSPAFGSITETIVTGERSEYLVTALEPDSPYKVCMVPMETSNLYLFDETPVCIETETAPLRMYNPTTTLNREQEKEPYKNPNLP
procedureSummary: antibody binning matrix (Table 2); competitor: 5C2
Parameter binning response (no name or unit printed): see the listing below.
Format: numeric value only, no unit, no commentary.

- 14B7 (antibody, V domains shown, Variable domains only; also called FLRT3 mAb 14B7; antibody 14B7) VH: QVQLQQSGPELVKPGASVNISCKASGYAFGNSWMNWVKQRPGKGLEWIGWIYPGDGNANYNGKFKGKATLTADKSSSTAYMQLSSLTSEDSAVYFCARALYDYDGWFAYWGQGTLVTVSA VL: DIQMNQSPSSLSASLGDTITIACRASQNIDIWLSWYQQKPGSIPKLLIYKASNLHTGVPSRFSGSGSGTDFTLTISSLQPEDIATYYCLQGQSFPFTFGSGTKLEIK: 0.0014

Exam item: Which binning response (no name or unit printed) value belongs to 14D3 (antibody, V domains shown, Variable domains only) VH: EIQLQQSGAELVKPGASVKISCKASGYSFTGYNMNWVKQSHGKSLEWIGNITPYYGSASYNQKFKGKATLTVDKSSSTAYMQLNSLTSEDSAVYYCARRSYDYDENAMDYWGQGTSVTVSS VL: DIVMTQSHKFMSTSVGDRVSITCKASQDLSTAVAWYQQKPGQSPKLLIYSASYRYTGVPDRFTGSGSGTDFTFTISSVQAEDLAVYYCQQHYSTPLTFGAGTKLELK ?
Marked response: -0.101

Exam item: Which binning response (no name or unit printed) value belongs to 2F7 (antibody, V domains shown, Variable domains only) VH: EVQLQQSGPELVKPGASVKMSCKASGYTFTDYYMNWVKQSHGKSLEWIGRVYPSNSGASYNQKFKGKATLTVDKSLSTAYMQLNSLTSEDSAVYYCASSYYFDYWGQGTTLTVSS VL: DIVMTQSHKFMSTSIGDRVNITCKASQDVGTAVAWFQQKPGQSPKLLIYWASTRHTGVPDRFTGSGSGTDFTLTISNVQSEDLADYFCQQYSSYPTFGAGTTLELK ?
Marked response: -0.398

Exam item: Which binning response (no name or unit printed) value belongs to 1H5 (antibody, V domains shown, Variable domains only) VH: EVQLQQSGPELVKPGASVKMSCKASGYTFTDYYMNWVKQSHGKSLEWIGRVNPSNGVTSYNQKFKGKAALTVDKSLSTAYMQLNSLTSEDSAVYYCARDFLMDYWGQGTSVTVSS VL: DIVMTQSHKFMSTSVGDRVTITCKASQDVGTAVAWYQQKPGQSPKLLIYWASTRHTGVPDRFTGSGSGTDFTLTISNVQSEDLADYFCQQYSSYPTFGGGTKLEIK ?
Marked response: -0.26
